Overview of recorded pIC50 for various compounds
biological target: Plasma kallikrein (Homo sapiens); experiment: In-vitro Plasma Kallikrein Inhibition: Enzymatic reactions were conducted in ⿿assay buffer⿿, comprising 50 mM Hepes/NaOH at pH 7.8, 150 mM NaCl, 1 mM EDTA and 0.05% (w/v) CHAPS. For the determination of IC50 values, the assays were performed at room temperature in 384-well plates with a total assay volume of 25.25 ul per well. The test compound was dissolved in 90% (v/v) DMSO/water. For the assays, 250 nL of the 90% (v/v) DMSO/water solution or compound solution were added per well, followed by the addition of 12.5 ul protease solution (protease in assay buffer). The final assay concentration of the human plasma kallikrein was nominally 25 pM, the 11 compound concentrations in the dilution series were in the range form 1 nM to 100 uM. After 1 hour of pre-incubation at room temperature, the reactions were started by the addition of 12.5 ul substrate solution (in assay buffer, final assay concentration was 0.5 uM). After the addition of the substrate solution, the final DMSO concentration in the assay was 0.9% (v/v).; assay type: cell-free
Sequence (P03952 20-390 limits assumed): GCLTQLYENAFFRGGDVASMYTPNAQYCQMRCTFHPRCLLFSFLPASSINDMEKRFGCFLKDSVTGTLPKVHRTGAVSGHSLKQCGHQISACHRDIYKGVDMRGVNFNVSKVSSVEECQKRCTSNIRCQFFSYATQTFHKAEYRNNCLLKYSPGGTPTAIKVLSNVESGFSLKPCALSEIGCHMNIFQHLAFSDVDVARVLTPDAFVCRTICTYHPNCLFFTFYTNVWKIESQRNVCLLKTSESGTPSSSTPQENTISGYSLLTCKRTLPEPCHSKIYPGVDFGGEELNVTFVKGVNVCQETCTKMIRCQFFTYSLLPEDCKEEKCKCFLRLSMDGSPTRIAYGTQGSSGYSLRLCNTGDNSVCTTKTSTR
Sequence (P03952 391-638 limits assumed): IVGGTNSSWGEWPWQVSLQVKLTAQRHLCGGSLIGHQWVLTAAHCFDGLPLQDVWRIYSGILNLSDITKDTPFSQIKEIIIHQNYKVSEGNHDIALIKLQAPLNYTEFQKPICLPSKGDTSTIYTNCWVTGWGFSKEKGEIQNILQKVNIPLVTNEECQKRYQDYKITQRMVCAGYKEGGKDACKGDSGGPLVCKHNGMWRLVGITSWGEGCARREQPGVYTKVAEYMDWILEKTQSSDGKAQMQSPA
pIC50: −log10 of the molar value.

sample smiles: Cc1cc(N)nc(C)c1CNC(=O)c1nnn(Cc2ccccc2)c1C
pIC50: 4.28
//
sample smiles: Cc1cc(N)nc(C)c1CNC(=O)c1nc(Cc2ccccc2)n(C)n1
pIC50: 5.12
//
sample smiles: COc1ccc2cc(Cn3cc(C(=O)NCc4c(C)cc(N)nc4C)cn3)ccc2c1
pIC50: 8.30
//
sample smiles: Cc1cc(N)nc(C)c1CNC(=O)c1cn(Cc2ccc(-c3ccccc3)cc2)nn1
pIC50: 7.52
//
sample smiles: Cc1cc(N)nc(C)c1CNC(=O)c1cnn(Cc2ccc(CO)cc2)c1
pIC50: 6.82
//
sample smiles: Cc1cc(N)nc(C)c1CNC(=O)c1cc(C)n(Cc2ccco2)c1C
pIC50: 6.13
//
sample smiles: CNC(=O)COc1cc(N)nc(C)c1CNC(=O)c1cnn(Cc2ccccc2)c1
pIC50: 7.15
//
sample smiles: COc1cc(Cn2cc(C(=O)NCc3c(C)cc(N)nc3C)cn2)ccc1Cn1cccn1
pIC50: 10.04

Reference source for all entries: ChEMBL document CHEMBL3886577
